MEASURED TARGET: recombinant eIF4E (Homo sapiens (Human))
Sequence (P06730 whole entry): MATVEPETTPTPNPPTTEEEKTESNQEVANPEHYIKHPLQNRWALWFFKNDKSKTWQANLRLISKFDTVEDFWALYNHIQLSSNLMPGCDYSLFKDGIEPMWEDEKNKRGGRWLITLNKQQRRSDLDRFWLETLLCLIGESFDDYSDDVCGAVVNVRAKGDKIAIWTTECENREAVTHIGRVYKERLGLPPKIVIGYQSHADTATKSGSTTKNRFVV
PROTOCOL DETAILS: Fluorescence polarization competition assay for eIF4E binding potency
STUDY CONDITIONS: fluorescence polarization competition, 75 nM recombinant eIF4E, 20 nM EDA-m7GDP-ATTO-550; IC50 class; read-out: elF4E FP
Method: Compounds were screened for eIF4E binding potency using a fluorescence polarization competition assay. All binding reactions were performed in fluorescence polarization buffer (FPB) containing 20 mM Tris pH 7.5, 100 mM NaCl, 1 mM DTT, and 0.02% Tween-20. Final binding reactions contained 75 nM recombinant eIF4E (Beryllium, custom order), 20 nM EDA-m^7GDP-ATTO-550 (Jena Bioscience, NU-827-550) and varying concentrations of the inhibitory compound of interest. […]
pIC50: −log10 of the molar value.
METRIC: pIC50

Please review the following examples before continuing.
Cc1nc2cnc(O)c(C#N)c2c(=O)n1CC#Cc1ccc(Cl)cc1-c1ccnc2c(C(=O)O)csc12 | > 7.30
Cc1cc(-c2cc(Cl)ccc2OCCn2c(C)nc3cc(Cl)c(N4CCC4)c(C#N)c3c2=O)c2scc(C(=O)O)c2n1 | > 7.30
Cc1nc2cc(C(F)(F)F)c(N3CCN(C)CC3)c(C#N)c2c(=O)n1CCOc1ccc(Cl)cc1-c1ccnc(C(=O)O)c1 | > 7.30

// field: pIC50; key: CNc1nc2c(F)c(F)cc(CCOc3ccc(Cl)cc3-c3cccc(C(=O)O)c3)c2c(=O)[nH]1 ; value = 6.00 to 7.30

According to the records, this molecule Cc1nc2cc(C(F)(F)F)c(N3CCN(C)CC3)c(C#N)c2c(=O)n1CCOc1ccc(Cl)cc1-c1ncnc2ccsc12 displays pIC50 of 6.00 to 7.30

Entry under test: Cc1cc(-c2cc(Cl)ccc2OCCn2c(C)nc3cnc(N4CCC(O)C4)c(C#N)c3c2=O)c2sc(C)c(C(=O)O)c2n1 (stereo not shown) . Its pIC50 was > 7.30

For record N#Cc1cc2c(=O)n(C[C@@H]3C[C@H]3c3ccc(Cl)cc3-c3cccc(C(=O)O)c3)cnc2cn1 the listed pIC50 is < 6.00
